SYSTEM TESTED: PfENT1 (Plasmodium falciparum, UniProt Q8IDM6)
Sequence (Q8IDM6 whole entry): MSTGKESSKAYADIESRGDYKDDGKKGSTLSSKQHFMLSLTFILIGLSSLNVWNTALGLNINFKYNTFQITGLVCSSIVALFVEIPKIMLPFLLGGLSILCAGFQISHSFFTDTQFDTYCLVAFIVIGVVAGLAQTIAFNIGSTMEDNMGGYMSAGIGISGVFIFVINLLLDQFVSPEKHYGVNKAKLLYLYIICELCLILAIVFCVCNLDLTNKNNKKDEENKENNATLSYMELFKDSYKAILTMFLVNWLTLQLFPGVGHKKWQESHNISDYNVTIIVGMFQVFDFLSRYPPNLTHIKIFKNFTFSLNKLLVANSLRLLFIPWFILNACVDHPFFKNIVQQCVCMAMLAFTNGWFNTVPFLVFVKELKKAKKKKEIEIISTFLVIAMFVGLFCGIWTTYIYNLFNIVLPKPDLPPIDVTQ
ASSAY COMMENT: cell-based
APPLIED CONDITIONS: EC50 rescue of fui1Δ::PfENT1-HA-CO strain growth, 125 µM 5-FUrd; fluorescence
MEASUREMENT KIND: EC50 (mM)
Express it in mM; write the number only.

-- ask Suppose we examine the compound OC[C@H]1O[C@@H](n2cnc3c(O)ncnc32)[C@H](O)[C@@H]1O [Inosine, inosine, reference compound] ; what EC50 value has been reported?
-- reply 5.6

###

System: chloroquine-resistant Dd2 parasites
ASSAY COMMENT: Dd2 parasite viability / proliferation
Format: cell-based, Plasmodium falciparum
APPLIED CONDITIONS: WT Dd2; 90 µM xanthine vs 10 µM hypoxanthine as sole purine source
MEASUREMENT KIND: IC50 with xanthine as purine source versus hypoxanthine

1) Cn1cc(C(=O)C(=O)Nc2ccc(C(=O)N3CCCC3)cc2)c2ccccc21 : significantly lower
2) O=C(Nc1ccc2nc(NC(=O)c3ccco3)sc2c1)c1ccco1 : significantly lower
3) COc1cc(COc2ccc3c(C)cc(=O)oc3c2)cc(OC)c1OC : significantly lower
4) O=C(Nc1ccc(-c2nc3ncccc3o2)cc1)c1ccccc1Br : significantly lower
